Origin of the recorded values: patent US11666658B2

tested on: intracellular S. aureus NRS384 in THP-1 macrophages; assay: Intracellular killing assay 2 (rifamycin analogs, S. aureus in THP-1 macrophages); format: cell-based, Staphylococcus aureus; settings: Staphylococcus aureus, NRS384, 2 h; lowest concentration giving intracellular S. aureus below limit of detection (50 cfu/mL) in THP-1 macrophages; median of at least two experiments; read-out: S. aureus Intracellular killing MIC
measured.quantity: MIC (µM)

>>> numeric_value("CO[C@H]1/C=C/O[C@@]2(C)Oc3c(C)c(O)c4c(=O)c(c5oc6cc(OCCOCCN(C)C)cc(O)c6nc-5c4c3C2=O)NC(=O)/C(C)=C\\C=C\\[C@H](C)[C@H](O)[C@@H](C)[C@@H](O)[C@@H](C)[C@H](OC(C)=O)[C@@H]1C [Analog 29f]")
0.2
>>> numeric_value("CO[C@H]1/C=C/O[C@@]2(C)Oc3c(C)c(O)c4c(=O)c(c5oc6cc(OCCN7CCCC7)ccc6nc-5c4c3C2=O)NC(=O)/C(C)=C\\C=C\\[C@H](C)[C@H](O)[C@@H](C)[C@@H](O)[C@@H](C)[C@H](OC(C)=O)[C@@H]1C [Analog 16k]")
1
>>> numeric_value("CO[C@H]1/C=C/O[C@@]2(C)Oc3c(C)c(O)c4c(=O)c(c5oc6cc(OCCN(C(C)C)C(C)C)ccc6nc-5c4c3C2=O)NC(=O)/C(C)=C\\C=C\\[C@H](C)[C@H](O)[C@@H](C)[C@@H](O)[C@@H](C)[C@H](OC(C)=O)[C@@H]1C [Analog 16u]")
1
>>> numeric_value("CO[C@H]1/C=C/O[C@@]2(C)Oc3c(C)c(O)c4c(=O)c(c5oc6cc(OCCN(C)C)cc(OCc7ccccc7)c6nc-5c4c3C2=O)NC(=O)/C(C)=C\\C=C\\[C@H](C)[C@H](O)[C@@H](C)[C@@H](O)[C@@H](C)[C@H](OC(C)=O)[C@@H]1C [Analog 52]")
1
>>> numeric_value("CO[C@H]1/C=C/O[C@@]2(C)Oc3c(C)c(O)c4c(=O)c(c5oc6cc(OCCCN(C)C)ccc6nc-5c4c3C2=O)NC(=O)/C(C)=C\\C=C\\[C@H](C)[C@H](O)[C@@H](C)[C@@H](O)[C@@H](C)[C@H](OC(C)=O)[C@@H]1C [Analog 16o]")
0.2
>>> numeric_value("CO[C@H]1/C=C/O[C@@]2(C)Oc3c(C)c(O)c4c(=O)c(c5oc6cc(OCC7CCN(C)C7)ccc6nc-5c4c3C2=O)NC(=O)/C(C)=C\\C=C\\[C@H](C)[C@H](O)[C@@H](C)[C@@H](O)[C@@H](C)[C@H](OC(C)=O)[C@@H]1C (stereo partly drawn) [Analog 16j]")
1

---

Recorded MIC, one value per entry.
tested on: intracellular S. aureus NRS384 in THP-1 macrophages; test: Intracellular killing assay 2 (rifamycin analogs, S. aureus in THP-1 macrophages); assay type: cell-based, Staphylococcus aureus; conditions: Staphylococcus aureus, NRS384, 2 h; lowest concentration giving intracellular S. aureus below limit of detection (50 cfu/mL) in THP-1 macrophages; median of at least two experiments; read-out: S. aureus Intracellular killing MIC
measured.quantity: MIC (µM)

>>> numeric_value("CO[C@H]1/C=C/O[C@@]2(C)Oc3c(C)c(O)c4c(=O)c(c5oc6cc(OC7CCN(C)CC7)ccc6nc-5c4c3C2=O)NC(=O)/C(C)=C\\C=C\\[C@H](C)[C@H](O)[C@@H](C)[C@@H](O)[C@@H](C)[C@H](OC(C)=O)[C@@H]1C [Analog 17]")
0.2
>>> numeric_value("CO[C@H]1/C=C/O[C@@]2(C)Oc3c(C)c(O)c4c(=O)c(c5oc6cc(OCCN7CCN(C)CC7)cc(O)c6nc-5c4c3C2=O)NC(=O)/C(C)=C\\C=C\\[C@H](C)[C@H](O)[C@@H](C)[C@@H](O)[C@@H](C)[C@H](OC(C)=O)[C@@H]1C [Analog 29e]")
0.04
>>> numeric_value("CO[C@H]1/C=C/O[C@@]2(C)Oc3c(C)c(O)c4c(=O)c(c5oc6cc(OCCN(C)C)cc(SC)c6nc-5c4c3C2=O)NC(=O)/C(C)=C\\C=C\\[C@H](C)[C@H](O)[C@@H](C)[C@@H](O)[C@@H](C)[C@H](OC(C)=O)[C@@H]1C [Analog 60]")
0.2
>>> numeric_value("CO[C@H]1/C=C/O[C@@]2(C)Oc3c(C)c(O)c4c(=O)c(c5oc6cc(OCCN7CC8CCC7C8)cc(O)c6nc-5c4c3C2=O)NC(=O)/C(C)=C\\C=C\\[C@H](C)[C@H](O)[C@@H](C)[C@@H](O)[C@@H](C)[C@H](OC(C)=O)[C@@H]1C [Analog 29d]")
0.04
>>> numeric_value("CO[C@H]1/C=C/O[C@@]2(C)Oc3c(C)c(O)c4c(=O)c(c5oc6cc(OCC7CCN(C)CC7)ccc6nc-5c4c3C2=O)NC(=O)/C(C)=C\\C=C\\[C@H](C)[C@H](O)[C@@H](C)[C@@H](O)[C@@H](C)[C@H](OC(C)=O)[C@@H]1C [Analog 16g]")
0.2
>>> numeric_value("CO[C@H]1/C=C/O[C@@]2(C)Oc3c(C)c(O)c4c(=O)c(c5oc6cc(OCCN7CCN(C)CC7)ccc6nc-5c4c3C2=O)NC(=O)/C(C)=C\\C=C\\[C@H](C)[C@H](O)[C@@H](C)[C@@H](O)[C@@H](C)[C@H](OC(C)=O)[C@@H]1C [Analog 16h]")
1
>>> numeric_value("CO[C@H]1/C=C/O[C@@]2(C)Oc3c(C)c(O)c4c(=O)c(c5oc6cc(OCC7CCCN7C)ccc6nc-5c4c3C2=O)NC(=O)/C(C)=C\\C=C\\[C@H](C)[C@H](O)[C@@H](C)[C@@H](O)[C@@H](C)[C@H](OC(C)=O)[C@@H]1C (some centres unmarked) [Analog 16l]")
1
